B1: TBX5 (parent)
chain: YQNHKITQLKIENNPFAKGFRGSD

- Variants of: B1
- PROCEDURE SUMMARY: protein stability index of a GFP-peptide fusion (GPS, HEK-293T) (PSI 1-6); higher = more stable;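 further: lentivirally expressed fusions sorted by FACS into six bins by GFP to DsRed ratio, PSI derived from sequencing read proportions per bin multiplied by bin number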
- CONDITION PARAMETERS: c terminus: a fixed tail appended
MEASUREMENT TYPE: protein stability index

>>> df
    mutation_name         measurement_type  observed_value
 0           K18P  protein stability index            2.54
 1            T7D  protein stability index            2.69
 2           I11N  protein stability index            2.59
 3           D24P  protein stability index            2.39
 4           D24W  protein stability index            1.32
 5            Y1K  protein stability index            3.91
 6            Y1H  protein stability index            3.79
 7           K10F  protein stability index            1.81
 8           P15A  protein stability index            2.52
 9           G22H  protein stability index            2.46
10           S23N  protein stability index            2.39
11           I11K  protein stability index            2.52
12           G22D  protein stability index            2.56
13           N13A  protein stability index            2.17
14           F16V  protein stability index            2.73
15            Q8I  protein stability index            2.06
16           D24A  protein stability index            2.43
17           G22R  protein stability index            2.12
18            Q2Y  protein stability index            2.92
19            Q8V  protein stability index            2.49
20           G19F  protein stability index            2.16
21           P15I  protein stability index            2.04
22           S23V  protein stability index            2.35
23           I11L  protein stability index            2.62
24           K10P  protein stability index             3.2
25           K18M  protein stability index            2.06
26           S23E  protein stability index            2.42
27            Y1R  protein stability index            3.61
28           F20E  protein stability index            3.56
29           A17H  protein stability index            2.54
30            K5Q  protein stability index            2.81
31           G22A  protein stability index            2.37
32           K18Y  protein stability index            2.12
33            I6E  protein stability index            3.16
34            T7Q  protein stability index            2.63
35           P15T  protein stability index            2.82
36           D24H  protein stability index            1.99
37           K18T  protein stability index            1.67
38           G22W  protein stability index            1.76
39            N3R  protein stability index            2.44
40           K10I  protein stability index            1.63
41            K5S  protein stability index            2.21
42            K5R  protein stability index            2.38
43           G22E  protein stability index            2.33
44           D24G  protein stability index            2.39
45           I11G  protein stability index            2.47
